The reported measurements were obtained from patent US20130317073A1.

test system: Euschistus heros; assay: Euschistus heros (neotropical brown stink bug) contact/feeding activity on sprayed soybean plants; assay type: in vivo; conditions: 120 h, Rate 3 ppm, N-2 nymphs on sprayed 2 week old soybean plants, evaluation 5 days after infestation, average of two replicates, read-out: mortality and growth effects
With a cut-off of 20%, any mortality at 3 ppm strictly below it is called 1.0; any mortality at 3 ppm meeting it or above is called 0.0.

INSERT INTO results (compound, class_label) VALUES
  ('O=C(CNC(=O)c1ccc(C2=NOC(c3cc(Cl)cc(Cl)c3)(C(F)(F)F)C2)cc1)CC(F)(F)F (stereo not drawn) [Compound 7]', 1.0),
  ('Cc1cc(C2=NOC(c3cc(Cl)cc(Cl)c3)(C(F)(F)F)C2)ccc1C(=O)NC1CSC1 (stereo not drawn) [Compound 1]', 0.0),
  ('Cc1cc(C2=NOC(c3cc(Cl)cc(Cl)c3)(C(F)(F)F)C2)ccc1C(=O)NC1CS(=O)(=O)C1 (stereo not drawn) [Compound 2]', 0.0),
  ('CCCCNC(=O)c1ccc(C2=NOC(c3cc(Cl)cc(Cl)c3)(C(F)(F)F)C2)cc1C (stereo not drawn) [Compound 8]', 1.0),
  ('COC(=O)N1CC(NC(=O)c2ccc(C3=NOC(c4cc(Cl)cc(Cl)c4)(C(F)(F)F)C3)cc2C)C1 (stereo not drawn) [Compound 4]', 1.0),
  ('O=C(CNC(=O)c1ccc(C2=NOC(c3cc(Cl)cc(Cl)c3)(C(F)(F)F)C2)c2ccccc12)CC(F)(F)F (stereo not drawn) [Compound 6]', 0.0),
  ('Cc1cc(C2=NOC(c3cc(Cl)cc(Cl)c3)(C(F)(F)F)C2)ccc1C(=O)NC1(C)CSC1 (stereo not drawn) [Compound 3]', 1.0),
  ('Cc1cc(C2=NOC(c3cc(Cl)cc(Cl)c3)(C(F)(F)F)C2)ccc1C(=O)NCC(F)(F)F (stereo not drawn) [Compound 9]', 1.0),
  ('Cc1cc(C2=NOC(c3cc(Cl)cc(Cl)c3)(C(F)(F)F)C2)ccc1C(=O)NCC(=O)CC(F)(F)F (stereo not drawn) [Compound 5]', 0.0);
